- Tgt: IRAK4 enzyme (Homo sapiens, UniProt Q9NWZ3)
- Construct: purchased Carna Biosciences, Chuo-ku, Kobe, Japan
- Sequence (Q9NWZ3 1-460): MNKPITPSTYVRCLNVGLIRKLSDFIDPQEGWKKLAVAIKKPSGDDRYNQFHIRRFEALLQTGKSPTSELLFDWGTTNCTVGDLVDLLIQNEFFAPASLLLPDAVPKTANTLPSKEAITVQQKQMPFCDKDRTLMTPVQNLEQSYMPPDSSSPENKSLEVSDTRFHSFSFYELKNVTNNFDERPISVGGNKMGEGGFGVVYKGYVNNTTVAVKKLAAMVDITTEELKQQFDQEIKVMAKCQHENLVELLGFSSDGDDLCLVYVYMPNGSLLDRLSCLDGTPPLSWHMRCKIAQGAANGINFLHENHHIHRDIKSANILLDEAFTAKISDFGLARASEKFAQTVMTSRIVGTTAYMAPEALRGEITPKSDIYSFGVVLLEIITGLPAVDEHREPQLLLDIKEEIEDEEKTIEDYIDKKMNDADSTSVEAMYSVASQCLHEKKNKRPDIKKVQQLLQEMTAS
- Assay details: IRAK4 Biochemical Assay (TR-FRET, STK1 KinEASE)
- Condition context: 500 μM ATP, Table 2 second part (compounds 33-343), read-out: IC50 IRAK4-HTBS
Property: IC50; scope: individual molecules
The reply should consist of the numeric value with the unit placed after it.

CC(=O)N[C@@H]1[C@@H]2C[C@H]1CN(c1nnc(-c3cnc(-c4ccc5cc(C#N)cnn45)cc3NC(C)C)s1)C2 [Example 173]; 1.52 nM

Incoming: Give IRAK4 enzyme (Homo sapiens, UniProt Q9NWZ3) IC50 for COC(=O)NC[C@H]1C[C@H](Nc2cc(-c3ccc4cc(C#N)cnn34)ncc2-c2nnc(N3C[C@H]4CC[C@@H](C3)[C@@H]4NC(C)=O)s2)C1 [Example 52]
Outgoing: 0.82 nM

Incoming: Also, CC(=O)N[C@H]1C[C@H]2CC[C@@H](C1)N2c1nnc(-c2cnc(-c3ccc4cc(C#N)cnn34)cc2NC(C)C)s1 [Example 55] please.
Outgoing: 0.54 nM
